These entries and their values trace back to patent US10160867B2.

- Tested on: Penicillium chrysogenum
- assayProtocol: 3 day MIC, broth microdilution in 25% PDB
- Type: cell-based
- settings: 72 h, 25% PDB, read-out: 3 day MIC
measurementType: MIC (µg/mL)
Give your result in µg/mL as a bare value.

N#Cc1ccc2c(c1)COB2O; 100
O=C1C2CC=CCC2C(=O)N1SC(Cl)(Cl)Cl (stereo not drawn); 0.78

# next compound below
input: Please list MIC recorded for the compound c1ccc2[nH]c(-c3cscn3)nc2c1
output: 0.4

----------
- Tested on: Penicillium corylophilum
- assayProtocol: 3 day MIC, broth microdilution in 25% PDB
- Format: cell-based
- settings: 72 h, 25% PDB, read-out: 3 day MIC
Recorded measurements of MIC, one per entry
Give your result in µg/mL as a bare value.

O=C1C2CC=CCC2C(=O)N1SC(Cl)(Cl)Cl (centres unmarked); 0.78
N#Cc1c(Cl)c(Cl)c(Cl)c(C#N)c1Cl; 0.39
N#Cc1ccc2c(c1)COB2O; 100
OB1OCc2cc(F)ccc21; 0.39
OB1OCc2cc(Cl)ccc21; 0.78

# next compound below
input: Please list MIC recorded for the compound c1ccc2[nH]c(-c3cscn3)nc2c1
output: 0.39
